Ref: PubChem BioAssay (NCI)

TGI values for the molecules below.
Test system: NCI-H522 lung
Experiment: NCI tumour cell line growth inhibition, 48 h

Could you tell me which TGI is on file for O=c1[nH]c(=O)n(C2OC(CO)C(O)C2O)c2nc(-c3ccc(-c4ccccc4)cc3)cnc12 (stereo not drawn) ? > 100 µM

Could you tell me which TGI is on file for CC(=O)/C(=C\c1cccc([N+](=O)[O-])c1)C(=O)Nc1ccccc1C ? > 100 µM

Could you tell me which TGI is on file for CCN(CCCN(CC)C(=O)Nc1c(C)cccc1C)C(=O)Nc1c(C)cccc1C ? > 100 µM

* * *

System: RXF 393 renal
Assay: NCI tumour cell line growth inhibition, 48 h
endpoint-name: TGI

Use the examples below as a reference point.
[
  {
    "molecule": "COc1ccc(S(=O)(=O)NNS(C)(=O)=O)cc1",
    "TGI": "> 100 µM"
  },
  {
    "molecule": "COc1ccc(NC(=O)CC(=O)N2N=C(N3c4ccccc4Sc4ccccc43)CC2c2ccccc2)cc1 (stereo not drawn)",
    "TGI": "> 100 µM"
  },
  {
    "molecule": "O=c1cc(-c2ccccc2)oc2cc(OCCCOc3ccc4c(=O)cc(-c5ccccc5)oc4c3)ccc12",
    "TGI": "> 100 µM"
  },
  {
    "molecule": "Cc1ccc2c(c1)C(=O)C1(Cc3ccccc3C1=O)C2 (stereo not drawn)",
    "TGI": "> 100 µM"
  },
  {
    "molecule": "CCCCCCN(CCCCCC)C(=O)Cc1c2n(c3ccccc13)Cc1ccccc1-2",
    "TGI": "> 100 µM"
  }
]

Could you tell me which TGI is on file for COc1cc(NCc2ccc3oc(=O)c(-c4ccccc4)nc3c2)cc(OC)c1OC ? > 10 µM

Could you tell me which TGI is on file for [Cl-].[La+3].[O-]/N=C(\c1ccccc1)c1ccccn1.[O-]/N=C(\c1ccccc1)c1ccccn1.[O-]/N=C(\c1ccccc1)c1ccccn1 ? > 90.4 µM

Could you tell me which TGI is on file for CS(=O)(=O)OCC(CCl)(CCl)CCl ? > 100 µM

Could you tell me which TGI is on file for CC(=O)Nc1nc(C#N)[nH]c1C#N ? > 100 µM

Could you tell me which TGI is on file for CCC1(CC)C(=O)NN(C(=O)c2ccccc2)C1=O ? > 100 µM

Could you tell me which TGI is on file for O=C(Nc1nccs1)c1c(O)nc2sccn2c1=O ? > 10 µM

Could you tell me which TGI is on file for COc1ccc(C2=N/C(=C\c3ccccc3)C(=O)O2)cc1 ? > 100 µM

Could you tell me which TGI is on file for COc1cc(C2c3cc4c(cc3OC(NN)C2C)OCO4)cc(OC)c1OC (stereo not drawn) ? > 100 µM
